The reported numbers originate from patent US20060276464A1.

Target sequence: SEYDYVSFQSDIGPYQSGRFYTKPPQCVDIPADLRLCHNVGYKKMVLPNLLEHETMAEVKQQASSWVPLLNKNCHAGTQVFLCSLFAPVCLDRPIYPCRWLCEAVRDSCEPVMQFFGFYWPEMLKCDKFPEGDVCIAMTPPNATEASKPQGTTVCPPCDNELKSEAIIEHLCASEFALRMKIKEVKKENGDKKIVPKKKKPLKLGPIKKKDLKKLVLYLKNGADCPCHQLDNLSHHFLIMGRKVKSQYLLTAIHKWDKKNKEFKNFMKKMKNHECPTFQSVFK
Experimental Endpoint: IC50 (µM)

Reference set (10 entries):
CNc1ccc(S(=O)(=O)c2ccc(C(F)(F)F)c(S(=O)(=O)NC3CCNCC3)c2)cc1 [Example 842] = 0.19
O=S(=O)(NC1CCNCC1)c1cc(S(=O)(=O)c2cccc(Br)c2)ccc1C(F)(F)F [Example 1034] = 0.5
CN(CCNS(=O)(=O)c1cc(S(=O)(=O)c2ccccc2)ccc1C(F)(F)F)C(=O)NC1CCN(C(=O)OC(C)(C)C)CC1 [Example 866] = 0.8
Cc1ccc(S(=O)(=O)c2ccccc2)cc1S(=O)(=O)NCCn1ccnc1 [Example 314] = 1.2
CN(CCNS(=O)(=O)c1cc(S(=O)(=O)c2ccccc2)ccc1C(F)(F)F)C(=O)N[C@@H]1CCCNC1 [Example 1022] = 0.17
CCCc1ccc(S(=O)(=O)c2ccc(F)cc2)cc1S(=O)(=O)NCCc1ccccc1 [Example 559] = 1.2
Cc1ccc(S(=O)(=O)c2ccccc2)cc1S(=O)(=O)NC1CCCC1 [Example 399] = 3
CC(C)c1ccc(S(=O)(=O)c2ccccc2)cc1S(=O)(=O)NC1CCCC(C(=O)O)C1 (stereo not drawn) [Example 952] = 5
CN(CCNS(=O)(=O)c1cc(S(=O)(=O)c2ccccc2)ccc1C(F)(F)F)C(=O)N1CCN(C(=O)OC(C)(C)C)CC1 [Example 887] = 3
CC(C)c1cc(C(C)C)c(S(=O)(=O)c2ccc(F)cc2)cc1S(=O)(=O)NCCc1cccnc1 [Example 632] = 2.6

A. C[C@@H](NS(=O)(=O)c1cc(S(=O)(=O)c2ccccc2)ccc1C(F)(F)F)[C@@H](O)c1ccccc1 [Example 686]
B. O=S(=O)(NCC1(O)CCCCC1)c1cc(S(=O)(=O)c2ccccc2)ccc1C(F)(F)F [Example 868]
C. CC(C)c1ccc(S(=O)(=O)c2ccccc2)cc1S(=O)(=O)NC1C[C@H]2CC[C@@H](C1)N2C.Cl (relative stereo) [Example 860, monohydrochloride]
D. CC(C)c1ccc(S(=O)(=O)c2cn(C)cn2)cc1S(=O)(=O)NCCc1ccccn1 [Example 513]
E. COc1ccc(C(=O)N2CCC(NS(=O)(=O)c3cc(S(=O)(=O)c4ccccc4)ccc3C(F)(F)F)CC2)c(OC)c1 [Example 708]
Problem: Order these by IC50, descending, and give the full ranking. Provide the ranking by listing each label in its place in the requested order.
Result: D, B, C, A, E
